Data origin: patent US20120094899A1

# measured.target: T1, human TGR1 (human, UniProt Q9GZQ4 1-415)
# T1 construct: whole, on cells; Assayed as the membrane fraction of TGR1-expressing CHO cells (1.1 mg/mL protein); also called NMUR2; TGR1 receptor
# T1 sequence (Q9GZQ4 whole entry): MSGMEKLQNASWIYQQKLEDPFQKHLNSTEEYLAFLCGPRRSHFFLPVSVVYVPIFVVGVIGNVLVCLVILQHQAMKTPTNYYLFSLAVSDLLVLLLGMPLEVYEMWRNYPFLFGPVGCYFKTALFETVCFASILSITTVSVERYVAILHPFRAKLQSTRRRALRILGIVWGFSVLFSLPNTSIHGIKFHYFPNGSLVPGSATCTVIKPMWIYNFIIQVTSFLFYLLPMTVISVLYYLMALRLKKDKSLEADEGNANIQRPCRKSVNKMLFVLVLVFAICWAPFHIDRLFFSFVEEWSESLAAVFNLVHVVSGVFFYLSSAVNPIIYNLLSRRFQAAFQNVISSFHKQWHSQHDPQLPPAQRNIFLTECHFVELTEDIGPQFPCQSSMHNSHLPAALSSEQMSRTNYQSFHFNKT
# run.description: displacement of 125I-NMU8 from human TGR1 CHO membrane fraction; IC50 relative to NMU-8;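 further: competitive binding on TGR1-expressing CHO cell membranes, with compounds tested as DMSO dilution series and incubated for 70 min at 25 °C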
Non-standard residues stand in square brackets, D forms with d. No end group written: not given here. NMeR = CN[C@@H](CCCNC(=N)N)C(=O)O; βAla = NCCC(=O)O
Here the recorded IC50 ratio is given for each entry.

Item [βAla]YFRFRPRN-NH2 (N-terminus assumed; SMILES N=C(N)NCCC[C@H](NC(=O)[C@H](Cc1ccccc1)NC(=O)[C@H](Cc1ccc(O)cc1)NC(=O)CCN)C(=O)N[C@@H](Cc1ccccc1)C(=O)N[C@@H](CCCNC(=N)N)C(=O)N1CCC[C@H]1C(=O)N[C@@H](CCCNC(=N)N)C(=O)N[C@@H](CC(N)=O)C(N)=O) [β-Ala0,Arg3-NMU-8 (Compound 3)] has what recorded IC50 ratio?
0.38 ratio to NMU-8 (=1)

If you can, please state the reported IC50 ratio value of {mPEG 30 kDa-βAla}-YFLF[NMeR]PRN-NH2 [PEG30k-NH-β-Ala0,NMeArg5-NMU-8 (Compound M)] .
29 ratio to NMU-8 (=1)
